For each of the variants below, state its protein stability index.
B1: FUT8 (parent)
chain: NWRYATGGWETVFRPVSETCTDRS

Variants of: B1
Test: protein stability index of a GFP-peptide fusion (GPS, HEK-293T) (PSI 1-6); higher = more stable;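 further: lentivirally expressed fusions sorted by FACS into six bins by GFP to DsRed ratio, PSI derived from sequencing read proportions per bin multiplied by bin number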
Details: c terminus: a fixed tail appended
Enter a number only.

// sample D22C , its protein stability index was 1.93

// sample T19R , its protein stability index was 2.24

// sample R3C , its protein stability index was 2.76

// sample R14M , its protein stability index was 1.7

// sample T19G , its protein stability index was 2.72

// sample S17Q , its protein stability index was 2.67

// sample S24K , its protein stability index was 2.6

// sample P15Q , its protein stability index was 2.43

// sample F13M , its protein stability index was 2.28

// sample Y4L , its protein stability index was 2.36

// sample T11D , its protein stability index was 2.2

// sample G8S , its protein stability index was 2.4

// sample G8H , its protein stability index was 2.43

// sample S17I , its protein stability index was 1.28

// sample V16R , its protein stability index was 1.19

// sample R23V , its protein stability index was 2.89

// sample T21R , its protein stability index was 2.8

// sample G7N , its protein stability index was 2.13

// sample F13T , its protein stability index was 2.28

// sample S24D , its protein stability index was 1.76

// sample S17N , its protein stability index was 2.29

// sample T19C , its protein stability index was 1.42

The origin of these recorded values is the supplement of paper PMC10567573.
